- tested-system: T1, ITGA2 protein on the surface of human tumor cells (HuCCT1, A431) (human, UniProt P17301 30-1181)
- T1 construct: whole, on cells; Endogenously expressed on the cell lines; the cell line of each entry is named under assay or readout; also called Integrin alpha-2; ITGA2-positive HuCCT1 cells
- T1 sequence (looked up): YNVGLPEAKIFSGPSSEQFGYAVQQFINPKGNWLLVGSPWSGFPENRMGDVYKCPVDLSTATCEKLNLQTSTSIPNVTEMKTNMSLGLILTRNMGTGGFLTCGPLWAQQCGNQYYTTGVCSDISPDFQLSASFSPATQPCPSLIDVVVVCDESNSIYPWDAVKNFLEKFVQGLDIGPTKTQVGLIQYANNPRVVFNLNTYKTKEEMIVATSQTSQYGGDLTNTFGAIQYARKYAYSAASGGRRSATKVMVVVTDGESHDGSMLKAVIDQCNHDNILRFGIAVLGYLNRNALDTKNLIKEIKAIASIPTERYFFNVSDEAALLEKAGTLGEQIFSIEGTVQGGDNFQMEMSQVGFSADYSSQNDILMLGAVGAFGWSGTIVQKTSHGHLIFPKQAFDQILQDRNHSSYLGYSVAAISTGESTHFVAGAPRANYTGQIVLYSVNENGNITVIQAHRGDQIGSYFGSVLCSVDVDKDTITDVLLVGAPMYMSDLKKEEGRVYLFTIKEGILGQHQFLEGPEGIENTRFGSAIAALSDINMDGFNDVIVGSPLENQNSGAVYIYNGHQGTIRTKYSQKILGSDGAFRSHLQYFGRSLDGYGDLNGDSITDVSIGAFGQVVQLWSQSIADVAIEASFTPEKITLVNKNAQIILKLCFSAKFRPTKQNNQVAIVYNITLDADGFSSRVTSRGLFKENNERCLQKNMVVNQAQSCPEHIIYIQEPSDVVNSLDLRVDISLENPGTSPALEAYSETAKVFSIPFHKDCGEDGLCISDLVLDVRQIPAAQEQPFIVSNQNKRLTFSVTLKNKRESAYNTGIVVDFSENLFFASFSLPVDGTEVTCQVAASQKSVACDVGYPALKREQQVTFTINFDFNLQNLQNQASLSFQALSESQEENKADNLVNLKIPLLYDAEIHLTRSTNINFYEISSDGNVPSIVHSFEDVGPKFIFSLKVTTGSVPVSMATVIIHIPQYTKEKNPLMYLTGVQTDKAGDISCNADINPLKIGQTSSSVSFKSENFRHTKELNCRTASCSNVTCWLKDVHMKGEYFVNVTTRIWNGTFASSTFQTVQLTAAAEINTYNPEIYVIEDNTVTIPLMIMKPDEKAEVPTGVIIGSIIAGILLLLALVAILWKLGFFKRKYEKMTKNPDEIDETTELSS
- experiment-description: flow cytometry on HuCCT1 cells, goat anti-human IgG (H+L) secondary antibody
pEC50: −log10 of the molar value.
This section presents binders with their documented pEC50 values.

binder	pEC50
Humanized antibody FS002-C15 (antibody, human IgG1, kappa, V domains shown, IgG1 heavy chain, kappa light chain) VH: QLQLQESGPGLVKPSETLSLTCTVSGGSISSSSYYWGWIRQPPGKGLEWIGSIYYSGSTYYNPSLKSRVTISVDTSKNQFSLKLSSVTAADTAVYYCARLTIFGVVLYWGQGTLVTVSS VL: EIVLTQSPATLSLSPGERATLSCQASQTFSDYLAWYQQKPGQAPRLLIYDASTRATGIPARFSGSGSGTDFTLTISSLEPEDFAVYYCQQRSHWPPGYTFGQGTRVEIKR	8.67
Humanized antibody FS002-C375 (antibody, human IgG1, kappa, V domains shown, IgG1 heavy chain, kappa light chain) VH: QVQLQESGPGLVKPSQTLSLTCTVSGGSISSGGYYWSWIRQHPGKGLEWIGYIYYSGSTYYNPSLKSRVTISVDTSKNQFSLKLSSVTAADTAVYYCARVGVALHYGMDVWGQGTTVTVSS VL: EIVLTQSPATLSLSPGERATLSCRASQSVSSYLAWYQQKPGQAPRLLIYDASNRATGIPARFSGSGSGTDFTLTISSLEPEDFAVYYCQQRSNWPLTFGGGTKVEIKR	8.66
